Biological target: NRAS G12C (Homo sapiens, UniProt P01111+P62937, G12C)
Sequence (P01111 whole entry G12C): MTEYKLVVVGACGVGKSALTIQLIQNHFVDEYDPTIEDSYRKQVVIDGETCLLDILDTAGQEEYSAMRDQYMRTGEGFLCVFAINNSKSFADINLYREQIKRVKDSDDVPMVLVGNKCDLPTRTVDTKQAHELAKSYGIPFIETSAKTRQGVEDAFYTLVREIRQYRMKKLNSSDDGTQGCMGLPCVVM
Sequence (P62937 whole entry): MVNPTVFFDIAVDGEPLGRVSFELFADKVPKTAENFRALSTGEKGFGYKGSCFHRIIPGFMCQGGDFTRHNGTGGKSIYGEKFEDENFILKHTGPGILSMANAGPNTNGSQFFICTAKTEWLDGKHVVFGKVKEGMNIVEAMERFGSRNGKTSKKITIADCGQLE
Test: Disruption of BRAF RBD interaction with Ras (FRET / MOA assay, with Cyclophilin A)
Assay type: biochemical
Conditions: NRAS G12C; read-out: NRAS G12C FRET data IC50
pIC50: −log10 of the molar value.
PARAMETER MEASURED: pIC50

See these solved cases before continuing.
• CCn1c(-c2cccnc2[C@H](C)OC)c2c3cc(ccc31)-c1cc(O)cc(c1)C[C@H](NC(=O)[C@H](C(C)C)N(C)C(=O)C1CC13CC3)C(=O)N1CCC[C@H](N1)C(=O)OCC(C)(C)C2 (some centres unmarked) [Example A156] = 7.00 to 8.00
• C=CC(=O)N1CC[C@H](C(=O)N(C)[C@H](C(=O)N[C@H]2Cc3cc(O)cc(c3)-c3ccc4c(c3)c(c(-c3cccnc3[C@H](C)OC)n4C)CC(C)(C)COC(=O)[C@@H]3CCCN(N3)C2=O)C(C)C)C1 [Example A197] = 6.00 to 7.00
• CCn1c(-c2cccnc2[C@H](C)OC)c2c3cc(ccc31)-c1csc(n1)C[C@H](NC(=O)[C@H](C(C)C)N(C)C(=O)N1CCN(C)C3(CC3)C1)C(=O)N1CCC[C@H](N1)C(=O)OCC(C)(C)C2 [Example A311] = 6.00 to 7.00

Record CCn1c(-c2cccnc2[C@H](C)OC)c2c3cc(ccc31)-c1cc(O)cc(c1)C[C@H](NC(=O)[C@H](C(C)C)N(C)C(=O)[C@H]1CCN(C(=O)CN)C1)C(=O)N1CCC[C@H](N1)C(=O)OCC(C)(C)C2 [Example A1] , field pIC50: 7.00 to 8.00

Record CCn1c(-c2cccnc2[C@H](C)OC)c2c3cc(ccc31)-c1csc(n1)C[C@H](NC(=O)C1CCC1)C(=O)N1CCC[C@H](N1)C(=O)OCC(C)(C)C2 [Example A369] , field pIC50: 6.00 to 7.00

Record CCn1c(-c2cccnc2[C@H](C)OC)c2c3cc(ccc31)-c1csc(n1)C[C@H](NC(=O)[C@H](C(C)C)N(C)C(=O)N1CC(N3CCN(C)CC3)C1)C(=O)N1CCC[C@H](N1)C(=O)OCC(C)(C)C2 [Example A288] , field pIC50: 7.00 to 8.00

Record CO[C@@H](COC1CN(C(=O)C#CC(C)(C)N(C)C)C1)C(=O)N[C@H]1Cc2cccc(c2)-c2ccc3c(c2)c(c(-c2cccnc2[C@H](C)OC)n3CC(F)(F)F)CC(C)(C)COC(=O)[C@@H]2CCCN(N2)C1=O [Example A556] , field pIC50: > 8.00

Record CCn1c(-c2ccccc2CCOC)c2c3cc(ccc31)-c1cc(O)cc(c1)C[C@H](NC(=O)[C@H](C(C)C)N(C)C(=O)[C@H]1CCN(C(=O)C#CCN(C)C)C1)C(=O)N1CCC[C@H](N1)C(=O)OCC(C)(C)C2 [Example A038] , field pIC50: > 8.00

Source listed as patent US20230233569A1.
